TGT: UniProt P50406
Sequence (P50406 whole entry): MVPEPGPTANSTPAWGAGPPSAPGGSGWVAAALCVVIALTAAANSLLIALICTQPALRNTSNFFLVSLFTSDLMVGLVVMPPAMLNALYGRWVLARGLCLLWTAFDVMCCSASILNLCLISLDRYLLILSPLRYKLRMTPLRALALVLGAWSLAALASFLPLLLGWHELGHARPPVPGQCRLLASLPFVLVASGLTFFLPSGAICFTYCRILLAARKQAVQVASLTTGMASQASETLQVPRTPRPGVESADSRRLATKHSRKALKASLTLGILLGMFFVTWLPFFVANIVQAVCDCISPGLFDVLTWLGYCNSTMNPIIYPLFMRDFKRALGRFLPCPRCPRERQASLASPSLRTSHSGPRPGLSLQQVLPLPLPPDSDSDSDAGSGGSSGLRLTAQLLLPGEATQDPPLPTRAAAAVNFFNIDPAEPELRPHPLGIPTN
ASSAY_REMARKS: Binding affinity to human recombinant 5HT6 receptor expressed in CHO cells co-expressing pCRE-Luc gene assessed as modulation of serotonin-induced intracellular cAMP level after 4 hrs by luciferase based luminescence assay
Format: cell-based
Each entry below carries its reported log10 of Kb.
Please interpret these as log10 of Kb where Kb is in nM.

Some solved entries appear below for comparison.
compound=COc1ccc(S(=O)(=O)n2cc(C3=C(Cl)CN(C)C3)c3ccccc32)cc1 value_reported=1.00
compound=COc1ccc2c(c1)c(CCN(C)C)cn2S(=O)(=O)c1ccccc1 value_reported=0.76
compound=CCN1CC(Cl)=C(c2cn(S(=O)(=O)c3ccccc3Br)c3ccc(OC)cc23)C1 value_reported=0.79
compound=COc1ccc2c(c1)c(C1=C(Cl)CN(C)C1)cn2S(=O)(=O)c1cccc(Cl)c1 value_reported=-0.08
compound=CCOc1ccc2c(c1)c(C1=C(Cl)CN(C)C1)cn2S(=O)(=O)c1ccccc1 value_reported=0.00
compound=CCN1CC(Cl)=C(c2cn(S(=O)(=O)c3cccc(Cl)c3)c3ccc(F)cc23)C1 value_reported=0.79
compound=CCN1CC(Cl)=C(c2cn(S(=O)(=O)c3cccc(Cl)c3)c3ccccc23)C1 value_reported=1.10
compound=CCN1CC(Cl)=C(c2cn(S(=O)(=O)c3ccc(OC)cc3)c3ccc(OC)cc23)C1 value_reported=1.16

Problem: Tell me its log10 of Kb on UniProt P50406: CC(C)Oc1ccc2c(c1)c(C1CCN(C)C1)cn2S(=O)(=O)c1ccccc1Br (racemic)
Result: 0.62

Problem: Tell me its log10 of Kb on UniProt P50406: "CCN1CC(Cl)=C(c2cn(S(=O)(=O)c3ccccc3Br)c3ccccc23)C1"
Result: 0.04

Problem: Tell me its log10 of Kb on UniProt P50406: CCOc1ccc2c(c1)c(C1CCN(C)C1)cn2S(=O)(=O)c1ccccc1Br (racemic)
Result: -1.00

Problem: Tell me its log10 of Kb on UniProt P50406: "CN1CC(Cl)=C(c2cn(S(=O)(=O)c3ccccc3Br)c3ccc(F)cc23)C1"
Result: -0.60

Problem: Tell me its log10 of Kb on UniProt P50406: "CCOc1ccc2c(c1)c(C1=C(Cl)CN(C)C1)cn2S(=O)(=O)c1ccc(Br)cc1"
Result: 0.65

Problem: Tell me its log10 of Kb on UniProt P50406: "CCN1CC(Cl)=C(c2cn(S(=O)(=O)c3cccc(Cl)c3)c3ccc(OC)cc23)C1"
Result: 0.38

Problem: Tell me its log10 of Kb on UniProt P50406: "CCN1CC(Cl)=C(c2cn(S(=O)(=O)c3ccc(F)cc3)c3ccc(OC)cc23)C1"
Result: 0.94

Problem: Tell me its log10 of Kb on UniProt P50406: "CN1CC(Cl)=C(c2cn(S(=O)(=O)c3ccc(F)cc3)c3ccccc23)C1"
Result: -0.22

Problem: Tell me its log10 of Kb on UniProt P50406: "COc1ccc(S(=O)(=O)n2cc(C3=C(Cl)CN(C)C3)c3cc(OC)ccc32)cc1"
Result: 0.22

Provenance of the data: ChEMBL document CHEMBL1806380
